# procedure summary: Rat PK test (cassette dosing)
# Format: in vivo
# condition description: male SD rats, plasma, intravenous 0.1 mg/kg, 10 compounds cassette, read-out: MRT iv (mean residence time, intravenous administration)
Each entry below carries its recorded MRT.
Numbers only; they are read as min.

// solved cases for MRT follow
[
  {
    "given smiles": "COCCNC(=O)c1ccc(Cc2cc(C(=O)N[C@H]3CCOC[C@@H]3O)c3c(c2C)CCO3)cc1F",
    "MRT, min": 42
  },
  {
    "given smiles": "Cc1c(Cc2ccc(-c3cn(C)nn3)cc2)cc(C(=O)N[C@H]2CCOC[C@@H]2O)c2c1CCO2",
    "MRT, min": 108
  },
  {
    "given smiles": "Cc1c(Cc2ccc(C(=O)NCC(=O)N(C)C)c(F)c2)cc(C(=O)N[C@H]2CCOC[C@@H]2O)c2c1CCO2",
    "MRT, min": 36
  }
]

Here is another molecule to look at.
Which value of MRT has been reported for Cc1c(Cc2ccc(C(=O)NC[C@H]3CCCO3)c(F)c2)cc(C(=O)N[C@H]2CCOC[C@@H]2O)c2c1CCO2 in the records? 36
